Measured protein stability index accompanies every entry in the list below.
B1: BTBD1 (parent)
chain: YGSIHGPTDYQVNIQIIEYEKKQT

Variants of: B1
assay_summary: protein stability index of a GFP-peptide fusion (GPS, HEK-293T) (PSI 1-6); higher = more stable;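 note: lentivirally expressed fusions sorted by FACS into six bins by GFP to DsRed ratio, PSI derived from sequencing read proportions per bin multiplied by bin number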
protocol_conditions: c terminus: a fixed tail appended
// no unit, no text: just the number

// worked examples, protein stability index included
mutant | protein stability index
I17V | 2.68
P7S | 2.76
I14N | 3.98
Q23R | 2.51
E18I | 3.84

input: Which protein stability index value belongs to K21T ?
output: 2.24
